Target: Induced myeloid leukemia cell differentiation protein Mcl-1 (Homo sapiens, UniProt Q07820)
Sequence (Q07820 whole entry): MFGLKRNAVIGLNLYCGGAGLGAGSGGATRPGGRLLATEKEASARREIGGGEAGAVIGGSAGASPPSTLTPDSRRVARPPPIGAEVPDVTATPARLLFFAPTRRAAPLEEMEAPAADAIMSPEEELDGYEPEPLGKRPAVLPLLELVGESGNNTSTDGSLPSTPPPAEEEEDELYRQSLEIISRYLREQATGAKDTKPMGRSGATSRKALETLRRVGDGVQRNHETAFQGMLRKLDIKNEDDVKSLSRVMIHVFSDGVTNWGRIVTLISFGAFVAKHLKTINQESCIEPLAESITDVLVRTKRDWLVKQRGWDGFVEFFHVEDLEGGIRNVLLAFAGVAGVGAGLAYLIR
Test: Inhibition of Mcl-1 (172-327) (unknown origin) using BIOTIN-AHXGQVGRQLAIIGDDINR-amide peptide by TR-FRET based BAK peptide displacement assay
pIC50: −log10 of the molar value.
Reported pIC50 values follow for various compounds

- Compound: "CCOc1cccc2c1OCC(=O)N[C@H]1CC[C@H](CC1)CC(=O)N[C@@](C)(c1ccccc1)C(=O)N[C@H](Cc1ccccc1)C(=O)NCCc1ccc(cc1)OC2"
  Qualifier: "="
  pIC50: 5.84
- Compound: "CCOc1cc(Oc2cc(C)c(Cl)c(C)c2)cc2c1OCC(=O)N[C@H]1CC[C@H](CC1)CC(=O)N[C@@H](c1ccccc1)C(=O)N1CCC[C@@H]1C(=O)NCCc1ccc(cc1)OC2"
  Qualifier: "="
  pIC50: 4.74
- Compound: "CCOc1cccc2c1OCC(=O)N[C@H]1CC[C@H](CC1)CC(=O)N[C@@H](C1CCCCC1)C(=O)N[C@H](CC1CCCCC1)C(=O)N[C@H](C(=O)NC)Cc1ccc(cc1)OC2"
  Qualifier: "="
  pIC50: 6.75
- Compound: "CCOc1cccc2c1OCC(=O)N[C@H]1CC[C@H](CC1)CC(=O)N(C)[C@@H](c1ccccc1)C(=O)N[C@H](Cc1ccccc1)C(=O)NCCc1ccc(cc1)OC2"
  Qualifier: "<"
  pIC50: 4.52
- Compound: "CCOc1cccc2c1OC(C)(C)C(=O)N[C@H]1CC[C@H](CC1)CC(=O)N[C@@H](c1ccccc1)C(=O)N[C@H](CC1CCCCC1)C(=O)NCCc1ccc(cc1)OC2"
  Qualifier: "="
  pIC50: 6.91
- Compound: "CC(C)C[C@@H]1NC(=O)C[C@H]2CC[C@H](CC2)NC(=O)COc2c(Cl)cccc2COc2ccc(cc2)CCNC(=O)[C@@H](Cc2ccccc2)NC1=O"
  Qualifier: "="
  pIC50: 6.60
- Compound: "CCOc1cccc2c1OCC(=O)N[C@H]1CC[C@H](CC1)CC(=O)N[C@@H](CC1CCCCC1)C(=O)N[C@H](CC1CCCCC1)C(=O)N[C@H](C(=O)NC)Cc1ccc(cc1)OC2"
  Qualifier: "="
  pIC50: 6.57
- Compound: "CCOc1cccc2c1OCC(=O)N[C@H]1CC[C@H](CC1)CC(=O)N[C@@H](c1ccccc1)C(=O)N[C@H](CC1CCCCC1)C(=O)N[C@H](C(=O)NC)Cc1ccc(cc1)OC2"
  Qualifier: "="
  pIC50: 7.19
- Compound: "CCOc1cccc2c1OCC(=O)N[C@H]1CC[C@H](CC1)CC(=O)N[C@@H](c1ccccc1)C(=O)N[C@H](CC1CCCCC1)C(=O)NCCc1ccc(cc1)OC2"
  Qualifier: "="
  pIC50: 6.64
- Compound: "CCOc1cc(Oc2cc(C)cc(C)c2)cc2c1OCC(=O)N[C@H]1CC[C@H](CC1)CC(=O)N[C@@H](c1ccccc1)C(=O)N[C@H](Cc1ccccc1)C(=O)NCCc1ccc(cc1)NC2"
  Qualifier: "="
  pIC50: 5.04
- Compound: "CCOc1cc(Oc2cccc(Cl)c2)cc2c1OCC(=O)N[C@H]1CC[C@H](CC1)CC(=O)N[C@@H](c1ccccc1)C(=O)N[C@H](Cc1ccccc1)C(=O)NCCc1ccc(cc1)OC2"
  Qualifier: "="
  pIC50: 4.66
- Compound: "CCOc1cc(Oc2cc(C)c(Cl)c(C)c2)cc2c1OCC(=O)N[C@H]1CC[C@H](CC1)CC(=O)N[C@@H](c1ccccc1)C(=O)N[C@H](Cc1ccccc1)C(=O)NCCc1ccc(cc1)OC2"
  Qualifier: "="
  pIC50: 5.82
- Compound: "CCOc1cc(-c2ccc(F)c(OC)c2)cc2c1OCC(=O)N[C@H]1CC[C@H](CC1)CC(=O)N[C@@H](c1ccccc1)C(=O)N[C@H](Cc1ccccc1)C(=O)NCCc1ccc(cc1)OC2"
  Qualifier: "="
  pIC50: 4.30
- Compound: "CCOc1cccc2c1OCC(=O)N[C@H]1CC[C@H](CC1)CC(=O)N[C@@H](c1ccccc1)C(=O)N[C@H](Cc1ccccc1)C(=O)NCCc1ccc(cc1)OC2"
  Qualifier: "="
  pIC50: 6.89
- Compound: "CCOc1cc(Oc2cc(C)c(Cl)c(C)c2)cc2c1OCC(=O)N[C@H]1CC[C@H](CC1)CC(=O)N[C@@H](CC(C)C)C(=O)N[C@H](Cc1cccnc1)C(=O)N[C@H](C(=O)O)Cc1ccc(cc1)OC2"
  Qualifier: "="
  pIC50: 4.51
- Compound: "CCOc1cc(C#Cc2ccc(OC)cc2)cc2c1OCC(=O)N[C@H]1CC[C@H](CC1)CC(=O)N[C@@H](c1ccccc1)C(=O)N[C@H](Cc1ccccc1)C(=O)NCCc1ccc(cc1)OC2"
  Qualifier: "="
  pIC50: 5.10
- Compound: "CCOc1cccc2c1OCC(=O)N[C@H]1CC[C@H](CC1)CC(=O)N[C@@H](CC(C)C)C(=O)N[C@H](Cc1ccccc1)C(=O)NCCc1ccc(cc1)OC2"
  Qualifier: "="
  pIC50: 7.05
- Compound: "COc1cccc2c1OCC(=O)N[C@H]1CC[C@H](CC1)CC(=O)N[C@@H](c1ccccc1)C(=O)N[C@H](Cc1ccccc1)C(=O)NCCc1ccc(cc1)OC2"
  Qualifier: "="
  pIC50: 6.76
- Compound: "CCOc1cccc2c1OCC(=O)N[C@H]1CC[C@H](CC1)CC(=O)N(c1ccccc1)CC(=O)N[C@H](Cc1ccccc1)C(=O)NCCc1ccc(cc1)OC2"
  Qualifier: "<"
  pIC50: 4.52
- Compound: "CCOc1cc(Oc2cc(C)c(Cl)c(C)c2)cc2c1OCC(=O)N[C@H]1CC[C@H](CC1)CC(=O)N[C@@H](c1ccccc1)C(=O)N[C@H](Cc1ccccc1)C(=O)N[C@H](C(=O)O)Cc1ccc(cc1)NC2"
  Qualifier: "="
  pIC50: 5.24
- Compound: "CCOc1cccc2c1OCC(=O)N[C@H]1CC[C@H](CC1)CC(=O)N[C@@H](c1ccccc1)C(=O)N[C@H](Cc1ccccc1)C(=O)N(C)CCc1ccc(cc1)OC2 (mixture of isomers)"
  Qualifier: "="
  pIC50: 4.66
- Compound: "CCOc1cc(Oc2cc(C)c(Cl)c(C)c2)cc2c1OCC(=O)N[C@H]1CC[C@H](CC1)CC(=O)N[C@@H](c1ccccc1)C(=O)N[C@H](Cc1cccnc1)C(=O)N[C@H](C(=O)O)Cc1ccc(cc1)OC2"
  Qualifier: "="
  pIC50: 4.89
